Tested on: SK-MEL-5 melanoma
test description: NCI tumour cell line growth inhibition, 48 h; in the data active = GI50 below about 0.43 µM; inactive = the rest
I would appreciate it if you answered using one of these outcomes: true (1) (active), false (0) (inactive)

Some entries whose results are on file:
>  <compound>
Cc1cc(N2CCSCC2)nc(NC2CCCC(Nc3ccnc4cc(Cl)ccc34)C2)n1 (stereo not given)

>  <discrete label>
false (0)

$$$$
>  <compound>
COc1ccc(OC)c2c1[nH]c(=O)c1c3ncccc3cn21

>  <discrete label>
false (0)

$$$$
>  <compound>
COc1cccc(NC(=O)c2sc3nc4c(cc3c2N)C(=O)CCC4)c1

>  <discrete label>
true (1)

$$$$
>  <compound>
CO[C@H](C(=O)[C@@H](O)[C@@H](C)O)[C@@H]1Cc2cc3cc(OC4CC(OC5CC(O)C(O)C(C)O5)C(O)C(C)O4)c(C)c(O)c3c(O)c2C(=O)[C@H]1OC1CC(OC2CC(OC3CC(C)(O)C(O)C(C)O3)C(O)C(C)O2)C(O)C(C)O1 (stereo not given in full)

>  <discrete label>
false (0)

$$$$
>  <compound>
CCN(CC)CCCNC(=O)c1c2c(n3ccccc13)C(=O)c1ncccc1C2=O

>  <discrete label>
true (1)

$$$$
>  <compound>
NC(=O)c1cccc(Nc2nccc(Nc3cccc4[nH]ncc34)n2)c1

>  <discrete label>
false (0)

$$$$
>  <compound>
COc1cc(Nc2nc3ccccc3cc2C(=O)Nc2ccc(F)c(F)c2)cc(OC)c1OC

>  <discrete label>
false (0)

$$$$
>  <compound>
C=C1CCC2C(C)(COC(=O)CC)C(OC(=O)CC)CCC2(C)C1C/C=C1/C(=O)OCC1OC(=O)CC (stereo not given)

>  <discrete label>
false (0)

$$$$
>  <compound>
COc1ccc(OC)c(-c2cc(-c3ccc(Cl)cc3)nn2-c2ccc(S(=O)(=O)NC(C)=O)cc2)c1

>  <discrete label>
false (0)

$$$$

As a next step, examine the compound that follows.
I'd appreciate the recorded outcome for "COc1ccc2nc3cc([N+](=O)[O-])ccc3c(NCCCN(C)C)c2c1" from this test.
false (0)

###

System: MDA-MB-231 breast
test description: NCI tumour cell line growth inhibition, 48 h; in the data active = GI50 below about 0.43 µM; inactive = the rest
I would appreciate it if you answered using one of these outcomes: active, inactive

>  <compound>
CCC(CNc1cc(OC)cc2cccnc12)NC1CCCCC1 (configuration not stated)

>  <discrete label>
inactive

$$$$

I'd appreciate the recorded outcome for "CCn1c(-c2cc3ccccc3cc2O)nn(C(=O)c2c(Cl)cccc2Cl)c1=S" from this test.
inactive

I'd appreciate the recorded outcome for "NC(=O)c1cccc(Nc2nccc(Nc3cccc4[nH]ncc34)n2)c1" from this test.
inactive

I'd appreciate the recorded outcome for "COc1ccc(OC)c2c1[nH]c(=O)c1c3ncccc3cn21" from this test.
inactive

I'd appreciate the recorded outcome for "COc1ccc(C(=O)c2cc3c(N)c(C(=O)Nc4ccc(C)cc4)sc3nc2C)cc1" from this test.
inactive

I'd appreciate the recorded outcome for "CCN(CC)CCCNC(=O)c1c2c(n3ccccc13)C(=O)c1ncccc1C2=O" from this test.
active

I'd appreciate the recorded outcome for Cc1cc(N2CCSCC2)nc(NC2CCCC(Nc3ccnc4cc(Cl)ccc34)C2)n1 (configuration not stated) from this test.
inactive

###

Test system: RPMI-8226 leukemia
test description: NCI tumour cell line growth inhibition, 48 h
test readout: TGI

See these solved cases before continuing.
>  <compound>
CC(=O)NC1=C[C@@H]([C@H]2COC(C)(C)O2)OC1=O

>  <TGI>
> 100 µM

$$$$
>  <compound>
O=C(O)CC1NCc2cc3ccccc3nc21 (configuration not stated)

>  <TGI>
> 100 µM

$$$$
>  <compound>
Cc1cn2c(/C=N/N=C(N)N)c(-c3cccs3)nc2s1

>  <TGI>
3.5 µM

$$$$
>  <compound>
O=C(O)CCC(=O)c1ccc(Cl)cc1

>  <TGI>
> 100 µM

$$$$
>  <compound>
COc1c(O)cc2c(c1O)C(=O)/C(=C/c1ccc(O)cc1)CO2

>  <TGI>
37.2 µM

$$$$
>  <compound>
Cc1cc(N2CCSCC2)nc(NC2CCCC(Nc3ccnc4cc(Cl)ccc34)C2)n1 (configuration not stated)

>  <TGI>
4.39 µM

$$$$

Answer with the recorded TGI of CC(=O)OC1CC2C(C)(C)C(=O)C=C[C@]2(C)C2CCC3(C)C(=CC(=O)C3c3ccoc3)[C@]12C (some centres not stated) only.
36.1 µM

Answer with the recorded TGI of "O=C(NCc1cccc2ccccc12)N/N=C\c1ccc(Cl)cc1" only.
> 100 µM

Answer with the recorded TGI of "Cc1cc(=O)oc2c(C)c(OCCCOc3ccc4c(C)cc(=O)oc4c3C)ccc12" only.
> 100 µM

Answer with the recorded TGI of COc1ccc(C2C3COc4ccccc4C3=NN2c2ccccc2)cc1 (configuration not stated) only.
> 100 µM

Answer with the recorded TGI of "CN(c1ccccc1Cl)S(=O)(=O)c1ccc([N+](=O)[O-])cc1" only.
> 100 µM

Answer with the recorded TGI of "NC(=O)c1cccc(Nc2nccc(Nc3cccc4[nH]ncc34)n2)c1" only.
> 25 µM

Answer with the recorded TGI of CC(C)(C)[Si](C)(C)OC1[C@@H](O[Si](C)(C)C(C)(C)C)[C@@H](CNC(=O)NC(=O)CCl)O[C@H]1n1cnc2c(NC(=O)Nc3ccccc3)ncnc21 (some centres not stated) only.
0.682 µM

Answer with the recorded TGI of "COc1ccc2cc(CN3CCC(C4CCNCC4)CC3)ccc2c1" only.
4.61 µM

Answer with the recorded TGI of "O=C(Cc1ccccc1)Nn1c(-c2ccccc2)nc2ccccc2c1=O" only.
> 100 µM

Answer with the recorded TGI of "Cc1cc(C)c(NC(=S)NC(=O)c2ccccc2)cc1C" only.
> 100 µM

Answer with the recorded TGI of "O=[N+]([O-])c1cc2c(cc1/C=N/n1c(CO)nc3ccccc31)OCO2" only.
> 100 µM

Answer with the recorded TGI of "COC(=O)c1cc(O)c2c(c1C(=O)OC)C[C@H]1[C@@H]3CC=C4C[C@@H](O)CC[C@]4(C)[C@H]3CC[C@]21C" only.
4.96 µM

Answer with the recorded TGI of "Cn1c2ccc(Br)cc2c2c3c(c4c5ccccc5[nH]c4c21)C(=O)N(O)C3=O" only.
0.672 µM

Answer with the recorded TGI of CCOC(=O)CC1(c2cccc3ccccc23)OC(=O)c2ccccc21 (configuration not stated) only.
64.2 µM

Answer with the recorded TGI of "Cc1ccc(NC(=O)CSc2nc(=O)[nH]c3nc[nH]c23)cc1" only.
> 100 µM

Answer with the recorded TGI of "Cc1ccc(/C=N/Nc2ccc3ccccc3n2)s1" only.
86.9 µM

###

TGI values by entry
Tested on: LXFL 529 NSCLC
test description: NCI tumour cell line growth inhibition, 48 h
Entry rule: numbers only, all in µM.

>  <compound>
O=C(Nc1cccc(O)c1)C(=O)C(C(=O)c1ccc(Cl)c(Cl)c1)C1OC(=O)c2ccccc21 (stereo not drawn)

>  <system tested>
LXFL 529 NSCLC

>  <observed measurement>
24.6

$$$$

Answer with the recorded TGI of "CN(C)c1nc(=Nc2cccc(Cl)c2)ss1" only.
21.7

Answer with the recorded TGI of "CN(C)C=C1C(Cl)=C(C=O)CC(C=O)=C1Cl" only.
4.45

Answer with the recorded TGI of "CCc1cccc(CC)c1NC(=O)C1=C(C)NC(C)=C(C(=O)Nc2c(CC)cccc2CC)C1c1ccc([N+](=O)[O-])cc1" only.
33.1

Answer with the recorded TGI of CC(C)(C)C1CCC2c3c([nH]c4ccccc34)C3C(=O)N(c4ccccc4)C(=O)C3C2C1 (stereo not drawn) only.
32.3

Answer with the recorded TGI of "CCOC(=N)/C(=C1\OC(N)=C(c2ccc(Cl)cc2)C1=O)c1ccc(Cl)cc1" only.
27.8

###

log10(TGI) values by entry
System: TK-10 renal
test description: NCI tumour cell line growth inhibition, 48 h
Values below are the log10 of the recorded TGI, with µM as the unit.

>  <molecule>
CCN(CC)CCCC(C)N=C(C1=C(C(=NC(C)CCCN(CC)CC)c2cccc(OC)c2)C(=O)NC1=O)c1cccc(OC)c1 (stereo not drawn)

>  <log10(TGI)>
0.54

$$$$

Okay, next one:
Answer with the recorded log10(TGI) of "CC[C@H]1C=CCC[C@@]2(C[C@@H]3CC[C@H]4[C@@H](C(=O)OCCCCCCCCCCCCCCCC(=O)N(CCCN)C[C@@H](O)CCN)[C@@]5(CCC[C@@H](C)O5)NC(=[N+]34)N2)O1" only.
0.48

###

TGI values by entry
Test system: SK-OV-3 ovarian
test description: NCI tumour cell line growth inhibition, 48 h

>  <compound>
Cc1cc(S(=O)(=O)Nc2nc(N)nc(N(C)C)n2)c(SCC(=O)O)cc1Cl

>  <observed measurement>
> 10 µM

$$$$
>  <compound>
CC(=O)On1c(-c2ccccc2-c2nc3ccccc3n2OC(C)=O)nc2ccccc21

>  <observed measurement>
> 100 µM

$$$$
>  <compound>
O=C(/C=C/c1ccccc1)n1c(-c2ccc(Cl)cc2)nc2ccccc21

>  <observed measurement>
5.71 µM

$$$$

Answer with the recorded TGI of COC1=CC(=O)C2C(C1=O)C(c1ccccc1)[C@H]2C (stereo partly drawn) only.
> 100 µM

Answer with the recorded TGI of "O=C(O)Cc1ccc2[nH]c(O)c(C3=Nc4ccccc4C3=O)c2c1" only.
94.8 µM

Answer with the recorded TGI of CC(C)(C)C1CCC2c3c([nH]c4ccccc34)C3C(=O)N(c4ccccc4)C(=O)C3C2C1 (stereo not drawn) only.
5.18 µM

Answer with the recorded TGI of CCOC(=O)C(Cc1cccn1C(=O)OC(C)(C)C)[N+](=O)[O-] (stereo not drawn) only.
> 100 µM

Answer with the recorded TGI of "FC(F)(F)c1cccc(-c2nc3ccccc3c3c2[C@@]2(N4CCCC4)CCCC[C@@H]32)c1" only.
> 100 µM

Answer with the recorded TGI of "O=Cc1ccc(-c2ccc(-c3nc4ccccc4o3)cc2)o1" only.
> 100 µM

Answer with the recorded TGI of "C=C1C(=O)O[C@@H]2C=C(C)C3=CC(=O)[C@](C)(C[C@H](OC(=O)/C(C)=C\C)[C@@H]12)O3" only.
16.8 µM

Answer with the recorded TGI of Clc1ccc(C2Nc3ccccc3C3=NCCN32)cc1 (stereo not drawn) only.
> 100 µM

Answer with the recorded TGI of "CC(=O)N=C1N(/C=C2\C(=O)Oc3ccccc3C2=O)C(=O)/C(=C/c2ccc(Cl)cc2Cl)N1C" only.
> 100 µM

Answer with the recorded TGI of O=CC12C3CCC1C2C(=O)C3 (stereo not drawn) only.
> 100 µM

Answer with the recorded TGI of "N#CCN/C=C\C(=O)c1ccc(Cl)cc1" only.
> 100 µM

Answer with the recorded TGI of "COc1ccc(CN=C(N)N)c2ccccc12" only.
> 100 µM

Answer with the recorded TGI of "O=C1Nc2ccc(Cl)cc2/C1=C\c1c(Cl)nc2sccn12" only.
> 100 µM

Answer with the recorded TGI of OCC(O)c1nc2ccc3[nH]ncc3c2c2c1CCCC2 (stereo not drawn) only.
> 50 µM

Answer with the recorded TGI of "CN(/N=C/c1ccnc2ccccc12)c1ccc(Cl)cc1[N+](=O)[O-]" only.
> 100 µM

Answer with the recorded TGI of "SCCSCCCSCCS" only.
> 100 µM
